# system-tested: human TREM2 (Homo sapiens)
# Construct: expressed in transfected cells; host or cells: HEK293T (HEK293T-hTREM2 cells)
# Sequence (Q9NZC2 19-230): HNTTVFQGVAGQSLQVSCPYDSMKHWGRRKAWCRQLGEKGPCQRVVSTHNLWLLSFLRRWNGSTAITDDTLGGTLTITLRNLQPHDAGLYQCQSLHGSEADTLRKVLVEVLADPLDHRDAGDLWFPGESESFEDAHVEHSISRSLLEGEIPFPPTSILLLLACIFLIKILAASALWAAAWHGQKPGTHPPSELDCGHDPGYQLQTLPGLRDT
# Sequence (O43914 22-113 partner): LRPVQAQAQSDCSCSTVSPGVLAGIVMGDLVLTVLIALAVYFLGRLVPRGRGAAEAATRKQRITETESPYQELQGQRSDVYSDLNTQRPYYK
# method: TREM2 agonist potency by cellular phosphorylation of Spleen Tyrosine Kinase (Syk), AlphaLisa, HEK293T-hTREM2 cells
# Type: cell-based
# condition-label: hTREM2 EC50 Data (HEK293 Cells); Syk phosphorylation, AlphaLisa; read-out: hTREM2 EC50
pEC50: −log10 of the molar value.
test-readout: pEC50

Query :: Using the record for [2H]C([2H])([2H])n1cc([C@H]2C[C@@H](c3nc(C45CC(C(F)(F)F)(C4)C5)c4nc(C)c(C)nc4n3)CCO2)ccc1=O , report its pEC50.
Result :: > 7.00

Query :: Using the record for COc1nc2c(C34CC(C(F)(F)F)(C3)C4)nc([C@H]3CCO[C@@H](c4ccc(=O)n(C)c4)C3)nc2nc1C , report its pEC50.
Result :: > 7.00

Query :: Using the record for COc1nc2c(-c3ccc(C(F)(F)F)cc3F)nc(C3CCOC(c4ccc(=O)n(C)c4)C3)nc2nc1C (centres unmarked) , report its pEC50.
Result :: > 7.00

Query :: Using the record for C=CCN(CC=C)n1cc([C@H]2C[C@@H](c3nc(C45CC(C(F)(F)F)(C4)C5)c4nc(C)c(C)nc4n3)CCO2)ccc1=O , report its pEC50.
Result :: > 7.00

Query :: Using the record for [2H]C([2H])([2H])c1nc2nc([C@H]3CCO[C@@H](c4ccc(=O)n(C5CC5)c4)C3)nc(C34CC(C(F)(F)F)(C3)C4)c2nc1C([2H])([2H])[2H] , report its pEC50.
Result :: > 7.00

---
Query :: Using the record for Cc1nc2nc([C@H]3CCO[C@@H](c4ccc(=O)n(N5CCCC5)c4)C3)nc(C34CC(C(F)(F)F)(C3)C4)c2nc1C , report its pEC50.
Result :: > 7.00

Query :: Using the record for Cc1nc2nc([C@H]3CCO[C@@H](c4ccc(=O)n(C)c4)C3)nc(C34CCC(C(C)(F)F)(CC3)C4)c2nc1C , report its pEC50.
Result :: > 7.00

---

# system-tested: human TREM2 (Homo sapiens)
# Construct: expressed in transfected cells; host or cells: HEK293T (HEK293T-hTREM2 cells)
# method: TREM2 agonist potency by cellular phosphorylation of Spleen Tyrosine Kinase (Syk), AlphaLisa, HEK293T-hTREM2 cells
# Format: cell-based
# condition-label: hTREM2 EC50 Data (HEK293 Cells); Syk phosphorylation, AlphaLisa; read-out: hTREM2 EC50
pEC50: −log10 of the molar value.
Recorded pEC50 values for a group of molecules are listed next.

Sample answers from the record:
Query :: Using the record for Cc1nc2c(C34CC(C(F)(F)F)(C3)C4)nc([C@@H]3CCO[C@H](c4ccc(=O)n(C)c4)C3)nc2nc1C1CC1 , report its pEC50.
Result :: > 7.00

Query :: Using the record for Cc1nc2nc([C@H]3CCO[C@@H](c4ccc(=O)n(CC(F)F)c4)C3)nc(C34CC(C(F)(F)F)(C3)C4)c2nc1C , report its pEC50.
Result :: > 7.00

Query :: Using the record for Cc1nc2nc([C@H]3CCO[C@@H](c4ccc(=O)n(C5CC5)c4)C3)nc(C34CC(C(F)(F)F)(C3)C4)c2nc1C , report its pEC50.
Result :: > 7.00

Query :: Using the record for Cc1nc2nc([C@@H]3CCO[C@H](c4ccc(=O)n(C(C)C)c4)C3)nc(C34CC(C(F)(F)F)(C3)C4)c2nc1C , report its pEC50.
Result :: > 7.00

Query :: Using the record for Cc1nc2nc([C@H]3CCO[C@@H](c4ccc(=O)n(C)c4)C3)nc(C3CCC(CF)CC3)c2nc1C (stereo partly shown) , report its pEC50.
Result :: > 7.00

Query :: Using the record for C=CC(=O)Nn1cc([C@H]2C[C@@H](c3nc(C45CC(C(F)(F)F)(C4)C5)c4nc(C)c(C)nc4n3)CCO2)ccc1=O , report its pEC50.
Result :: > 7.00

Query :: Using the record for COc1nc2c(C34CC(C(F)(F)F)(C3)C4)nc([C@H]3CCO[C@@H](c4ccc(=O)n(CC#N)c4)C3)nc2nc1C , report its pEC50.
Result :: > 7.00

Query :: Using the record for Cc1nc2nc([C@@H]3CCO[C@H](c4ccc(=O)n(C)c4)C3)nc(C34CC(C(F)(F)F)(C3)C4)c2nc1C1CC1 , report its pEC50.
Result :: > 7.00

Query :: Using the record for Cc1nc2nc([C@@H]3CCO[C@H](c4ccc(=O)n(C)c4)C3)nc(C3CCC(F)(F)CC3)c2nc1C , report its pEC50.
Result :: 6.30 to 7.00

Query :: Using the record for C=CCNn1cc([C@H]2C[C@@H](c3nc(C45CC(C(F)(F)F)(C4)C5)c4nc(C)c(C)nc4n3)CCO2)ccc1=O , report its pEC50.
Result :: > 7.00

---
Query :: Using the record for Cc1nc2nc([C@H]3CCO[C@@H](c4ccc(=O)n(CC#N)c4)C3)nc(C34CC(C(F)(F)F)(C3)C4)c2nc1C , report its pEC50.
Result :: > 7.00

Query :: Using the record for Cc1nc2nc([C@H]3CCO[C@@H](c4ccc(=O)n(C)c4)C3)nc(-c3ccc(C(F)(F)F)cc3F)c2nc1C(F)F , report its pEC50.
Result :: 6.30 to 7.00

Query :: Using the record for Cc1nc2nc([C@H]3CCO[C@@H](c4ccc(=O)n(C5CC5)c4)C3)nc(C34CC(C(F)(F)F)(C3)C4)c2cc1C(F)(F)F , report its pEC50.
Result :: > 7.00
